# assay-system: T1, GST-HEMBA 1003117 PDZ domain 1 (Homo sapiens (Human)), Q96JH8
# T1 chain: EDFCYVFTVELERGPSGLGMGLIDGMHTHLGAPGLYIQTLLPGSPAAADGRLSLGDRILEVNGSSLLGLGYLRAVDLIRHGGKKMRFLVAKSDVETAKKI
# procedure-summary: G assay titration, PDZ 5 ug/ml
Examples of binders with documented pKd follow.
// pKd here means minus log10 of the molar concentration (mol/L)

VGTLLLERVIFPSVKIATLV (modifications not checked) [AdenoE4 typ9]; 6.52

Lab note: next binder to report on.
Form field pKd, entry RELVDRGEVRQFTLRHWLKV (modifications not checked) [Dopamine transporter] : 6.52
